All figures here come from PubChem BioAssay AID1159554.

Field: activity change. Provide a value for each of the compounds that follow.
- assay_summary: P. falciparum Dd2 growth inhibitors, primary screen, SYBR Green fluorescence, single dose replicates (AID 1159554)
- measurement_parameters: 72 h, at 10 µM, hits give low values
In all, about 94,000 compounds went through this assay and about 2,100 (2.2%) were called active. What follows is part of a selection rich in actives, with near analogues and random picks from the rest.

[ask] Recorded activity change of C[C@H]1CCCCO[C@@H](CN(C)C(=O)C2CCCCC2)[C@@H](C)CN([C@@H](C)CO)C(=O)c2cc(NS(=O)(=O)c3cccs3)ccc2O1 , please.
[reply] -83.8% (active)

[ask] Okay, and C[C@@H]1CN([C@@H](C)CO)C(=O)c2cc(NS(=O)(=O)c3cccs3)ccc2O[C@@H](C)CCCCO[C@@H]1CN(C)C(=O)NC1CCCCC1 ?
[reply] -14% (inactive)

[ask] What about CCCN(C)C[C@@H]1OCCCC[C@H](C)Oc2ccc(NS(=O)(=O)c3ccc(C)cc3)cc2C(=O)N([C@H](C)CO)C[C@@H]1C ?
[reply] -87.8% (active)

[ask] Now the compound CCCNC(=O)[C@@H]1[C@@H](CO)[C@@H]2Cn3c(ccc(-c4cccc(OC)c4)c3=O)[C@H]1N2C(=O)NCCC
[reply] 8.98% (inactive)

[ask] Then this compound: COc1ccc2c3c([nH]c2c1)[C@@H](CO)N(C(=O)CC1CC1)CC31CCN(Cc2cccnc2)CC1
[reply] -7.62% (inactive)

[ask] Record: COc1ccc2c3c([nH]c2c1)[C@@H](CO)N(C(=O)c1ccccc1)CC31CCN(Cc2cccnc2)CC1
[reply] -47.6% (inactive)

[ask] Could you do the same for C[C@H](CO)N1C[C@H](C)[C@@H](CN(C)S(C)(=O)=O)OCCCC[C@H](C)Oc2ccc(NC(=O)Nc3cccc4ccccc34)cc2C1=O , please?
[reply] 11.4% (inactive)

[ask] Now consider C[C@@H]1CCCCO[C@@H](CN(C)C(=O)NC2CCCCC2)[C@H](C)CN([C@@H](C)CO)C(=O)c2cc(NC(=O)Nc3ccc(F)cc3)ccc2O1 .
[reply] 7.58% (inactive)

[ask] Subsequent entry: COc1ccc2c3c([nH]c2c1)[C@@H](CO)N(Cc1ccccc1)CC31CCN(Cc2cncnc2)CC1
[reply] -91.1% (active)

[ask] How about C[C@@H]1CCCCO[C@H](CN(C)C(=O)NC2CCCCC2)[C@H](C)CN([C@@H](C)CO)C(=O)c2cc(NC(=O)Nc3ccc(F)cc3)ccc2O1 ?
[reply] -11.4% (inactive)

[ask] Here is the next compound: CCCNC(=O)N(C)C[C@H]1Oc2ncc(-c3ccc(F)cc3)cc2C(=O)N([C@H](C)CO)C[C@H]1C
[reply] 0.175% (inactive)

[ask] Try C[C@@H]1CCCCO[C@H](CN(C)C(=O)NC2CCCCC2)[C@H](C)CN([C@H](C)CO)C(=O)c2cc(NC(=O)Nc3ccc(F)cc3)ccc2O1 next.
[reply] -85.2% (active)

[ask] For COCC(=O)Nc1ccc2c(c1)OC[C@H](C)N(C)C[C@H](C)[C@@H](OC)CN(C)C2=O then?
[reply] 26.8% (inactive)

[ask] Similarly, C[C@H]1CCCCO[C@@H](CN(C)C(=O)c2ccccc2)[C@@H](C)CN([C@@H](C)CO)C(=O)c2cc(NS(=O)(=O)c3cccs3)ccc2O1 ?
[reply] -57.2% (inactive)

----------
- assay_summary: P. falciparum Dd2 growth inhibitors, primary screen, SYBR Green fluorescence, single dose replicates (AID 1159554)
- measurement_parameters: 72 h, at 10 µM
Hit rate of the full screen: of about 94,000 compounds, about 2,100 (2.2%) were called active. Rule as the data show it: active = activity change below about -80%; inconclusive = no clear call, values can overlap the other calls; inactive = above that. Shown is part of a subset that was picked to be rich in actives.
Your response should consist of one outcome taken from active, inactive

[ask] So what was the verdict on O=C(C[C@@H]1CC[C@H]2[C@@H](COC[C@H](O)CN2S(=O)(=O)c2ccccc2)O1)NCCN1CCCC1 in this test?
[reply] inactive

[ask] Check Cc1cc(C(=O)Nc2cccc3c2O[C@@H](CN(C)Cc2ccc(C(=O)O)cc2)[C@H](C)CN([C@@H](C)CO)C3=O)n(C)n1 too.
[reply] inactive

[ask] Ok, now Cc1cc(C(=O)Nc2cccc3c2O[C@@H](CN(C)Cc2ccc(C(=O)Nc4ccccc4N)cc2)[C@H](C)CN([C@@H](C)CO)C3=O)n(C)n1
[reply] active

[ask] Would you kindly repeat that for COc1ccc(S(=O)(=O)N2CCCCN3[C@@H](CO)[C@@H](c4ccc(C#CCC(C)C)cc4)[C@@H]3C2)cc1 ?
[reply] active

[ask] Moving on to the next molecule: N#C[C@@H]1[C@H](c2ccccc2-c2ccccc2)[C@H](CO)N1c1ncc(-c2ccccc2)s1
[reply] inactive

[ask] Subsequent entry: Cn1cnc(S(=O)(=O)NC[C@@H]2CC[C@@H]3[C@@H](CN3Cc3nccs3)O2)c1
[reply] inactive

[ask] What would you report for C[C@H](CO)N1C[C@H](C)[C@H](CN(C)Cc2ccc(C(=O)Nc3ccccc3N)cc2)Oc2c(NC(=O)Nc3ccccc3)cccc2C1=O ?
[reply] active

----------
- assay_summary: P. falciparum Dd2 growth inhibitors, primary screen, SYBR Green fluorescence, single dose replicates (AID 1159554)
- measurement_parameters: 72 h, at 10 µM, hits give low values
About 2,100 (2.2%) of roughly 94,000 compounds were called active. This excerpt belongs to a sample that is enriched for actives.
Assignment: determine reported activity change for the given compounds.

[ask] What value of measured activity change is listed for COc1ccc2c3c([nH]c2c1)[C@@H](CO)N(C(C)=O)CC31CN(C(=O)Nc2ccc(F)cc2)C1 ?
[reply] -0.229% (inactive)

[ask] What about COc1ccc2c3c([nH]c2c1)[C@@H](CO)N(Cc1cc(F)ccc1F)CC31CCN(C(=O)C2CCC2)CC1 ?
[reply] -88% (active)

[ask] Same lookup for O=C(NC1CCC1)[C@@H]1[C@@H](CO)[C@@H]2Cn3c(ccc(/C=C/c4ccccc4)c3=O)[C@@H]2N1Cc1ccncc1 , please.
[reply] -2.62% (inactive)

[ask] How about CC(C)(C)[S@@](=O)N1Cc2cc(C(=O)O)nc(-c3cccc(-c4cccc(F)c4)c3)c2[C@H]1CCO ?
[reply] 41.4% (inactive)

[ask] Then CCC(=O)N1CC2(C1)CN(Cc1cc(F)ccc1F)[C@@H](CO)c1[nH]c3cc(OC)ccc3c12 ?
[reply] -89.9% (active)

[ask] Now this one: C[C@H]1CCCCO[C@H](CN(C)S(=O)(=O)c2ccc(F)cc2)[C@@H](C)CN([C@@H](C)CO)C(=O)c2cc(NS(=O)(=O)c3cn(C)cn3)ccc2O1
[reply] 9.89% (inactive)

[ask] Can you handle CCC(=O)N1C[C@H]2[C@@H](c3ccccc31)[C@H](CO)N2Cc1ccccc1F next?
[reply] 0.398% (inactive)

[ask] Can you check CCCNC(=O)N1CC2(CCN(C(=O)C3CC3)CC2)c2c([nH]c3cc(OC)ccc23)[C@H]1CO next?
[reply] -26.2% (inactive)

[ask] And the next one, O=C(NC1CCCCC1)N1CC2(C1)[C@H](c1ccccc1)[C@@H](CO)N2S(=O)(=O)Cc1ccccc1 ?
[reply] -4.41% (inactive)

[ask] Same again, this time with CC(C)NC(=O)Nc1ccc2c(c1)CC(=O)N([C@@H](C)CO)C[C@@H](C)[C@H](CN(C)CC1CC1)O2
[reply] 1.75% (inactive)

[ask] Quick one: COc1ccc2c3c([nH]c2c1)[C@@H](CO)N(C(=O)NC(C)C)CC31CN(C(=O)C2CCCC2)C1
[reply] 12.7% (inactive)

[ask] Entry to check: CO[C@@H]1CN(C)C(=O)c2cc(NC(=O)Nc3cc(F)ccc3F)ccc2OC[C@@H](C)N(C)C[C@H]1C
[reply] -36.8% (inactive)

[ask] Next entry: COc1ccc2c3c(n(C)c2c1)[C@@H](CO)N(C(C)=O)CC31CCN(Cc2nccs2)CC1
[reply] -11.3% (inactive)

[ask] What would you report for O=C(Nc1ccccc1F)N1C[C@H]2[C@@H](c3ccccc31)[C@@H](CO)N2C(=O)Cc1cccnc1 ?
[reply] 13.8% (inactive)

[ask] Try the compound C[C@@H]1CN([C@@H](C)CO)S(=O)(=O)c2ccc(C#CC(C)(C)O)cc2O[C@H]1CN(C)C(=O)CN(C)C
[reply] 31.6% (inactive)

[ask] Same again, this time with Cc1noc(C)c1NC(=O)Nc1ccc2c(c1)C(=O)N([C@H](C)CO)C[C@H](C)[C@H](CN(C)Cc1ccc(Oc3ccccc3)cc1)O2
[reply] -39.9% (inactive)

[ask] Repeat with COCCNC(=O)[C@H]1[C@H](CO)[C@H]2Cn3c(ccc(-c4ccccc4F)c3=O)[C@H]2N1C(=O)C1CCC1
[reply] -8.98% (inactive)

[ask] Another compound to check: C[C@@H]1CN([C@H](C)CO)C(=O)Cc2cc(NC(=O)Nc3ccccc3)ccc2O[C@@H]1CN(C)Cc1ccc(C(F)(F)F)cc1
[reply] 2.2% (inactive)

[ask] Another compound: COc1ccc2c3c(n(C)c2c1)[C@H](CO)N(Cc1cccnc1)CC31CCN(Cc2cccnc2)CC1
[reply] -77.6% (inactive)

[ask] Can you check COCC(=O)N1CC2(C1)CN(Cc1ccccc1F)[C@@H](CO)c1[nH]c3cc(OC)ccc3c12 next?
[reply] -88.4% (active)

[ask] Now the compound CCNC(=O)C[C@@H]1CC[C@H]2[C@@H](COc3ccc(NC(=O)Cc4cccs4)cc3C(=O)N2C)O1
[reply] 3.93% (inactive)

[ask] Try the compound C[C@H]1CN([C@@H](C)CO)C(=O)c2c(c3ccccc3n2C)-c2ccccc2CO[C@@H]1CN(C)C(=O)Nc1ccnc(N2CCOCC2)c1
[reply] -58.1% (inactive)

[ask] Likewise for C[C@H](CO)N1C[C@H](C)[C@@H](CN(C)CC2CC2)Oc2ccc(NC(=O)Nc3ccccc3)cc2CC1=O ?
[reply] -83.5% (active)

[ask] What about COc1cccc(CNC(=O)C[C@@H]2C=C[C@@H](NC(=O)C3CCC3)[C@@H](CO)O2)c1 ?
[reply] 37.9% (inactive)

[ask] Consider next the compound C[C@H]1CN([C@@H](C)CO)C(=O)Cc2cc(NC(=O)Nc3cccc4ccccc34)ccc2O[C@H]1CN(C)CC1CC1 in the same way.
[reply] -71.1% (inactive)

[ask] Next record, please: COc1ccccc1S(=O)(=O)N1CC[C@@H]2[C@H](CO)Nc3ccc(-c4ccccc4F)cc3[C@@H]21
[reply] -2.28% (inactive)

[ask] Next compound up: CCNC(=O)[C@H]1[C@H](CO)[C@H]2Cn3c(ccc(C4=CCCC4)c3=O)[C@@H]1N2S(=O)(=O)c1cn(C)cn1
[reply] 21.7% (inactive)

[ask] Try the compound CCC(=O)N1CCC2(CC1)CN(Cc1cc(F)ccc1F)[C@@H](CO)c1c2c2ccc(OC)cc2n1C
[reply] -73% (inactive)

[ask] Similarly, C[C@@H]1CCCCO[C@H](CN(C)S(C)(=O)=O)[C@@H](C)CN([C@H](C)CO)C(=O)c2cc(NC(=O)Nc3ccc4c(c3)OCO4)ccc2O1 ?
[reply] 25.2% (inactive)

[ask] Next compound: CCS(=O)(=O)N1[C@H](CO)[C@@H](c2ccccc2)C12CN(C(=O)C1CCC1)C2
[reply] 35.7% (inactive)

[ask] Next record, please: CCC(=O)N1CC2(C1)CN(Cc1nccs1)[C@@H](CO)c1c2c2ccc(OC)cc2n1C
[reply] 3.74% (inactive)

[ask] Cool, now COc1ccc2c3c(n(C)c2c1)[C@@H](CO)N(C(=O)Nc1cccc(F)c1)CC31CCN(Cc2nccs2)CC1
[reply] -73.5% (inactive)
